System: HLA-A*02
Assay: MHC binding assay, UV-ligand exchange with β2m ELISA, HLA-A*02 (Table 20)
Set-up: species or system human
Details: binding to HLA-A*02 ranged by peptide exchange yield (UV-ligand exchange, β2m ELISA)
assay_metric: Peptide exchange

# count of solved cases: 5
234 (LLSPHNPAL; listed as Homo sapiens) [compound 234] ... +++ (50%-75% = +++)
247 (ALYEGYATV; listed as Homo sapiens) [compound 247] ... +++ (50%-75% = +++)
68 (SLSNRLYYL; listed as Homo sapiens) [compound 68] ... +++ (50%-75% = +++)
23 (SLFSDEFKV; listed as Homo sapiens) [compound 23] ... +++ (50%-75% = +++)
28 (SLPNGKPVSV; listed as Homo sapiens) [compound 28] ... +++ (50%-75% = +++)

Per the records, this substance ( 265 (NTCPYVHNI; listed as Homo sapiens) [compound 265] ) has Peptide exchange equal to +++ (50%-75% = +++)

Record 98 (RLFPDFFTRVAL; listed as Homo sapiens) [compound 98] . Reported Peptide exchange: ++ (20%-49% = ++)

For this substance ( 39 (HLLEGSVGV; listed as Homo sapiens) [compound 39] ), measured Peptide exchange is +++ (50%-75% = +++)

# substance 107 (LLVPTSGIYFV; listed as Homo sapiens) [compound 107] ; its Peptide exchange = +++ (50%-75% = +++)

GET /value?item= 9 (FLVDGSYSI; listed as Homo sapiens) [compound 9] &field=Peptide exchange returns +++ (50%-75% = +++)

Lab note: 83 (GQASYFYVA; listed as Homo sapiens) [compound 83] gave Peptide exchange of ++ (20%-49% = ++)
